# tested system: T1, human chemokine receptor type 4 (CXCR4) (human, UniProt P61073 1-352)
# T1 construct: whole, on cells; also called CXCR4 receptor; CXCR4 chemokine receptor
# T1 sequence (P61073 whole entry): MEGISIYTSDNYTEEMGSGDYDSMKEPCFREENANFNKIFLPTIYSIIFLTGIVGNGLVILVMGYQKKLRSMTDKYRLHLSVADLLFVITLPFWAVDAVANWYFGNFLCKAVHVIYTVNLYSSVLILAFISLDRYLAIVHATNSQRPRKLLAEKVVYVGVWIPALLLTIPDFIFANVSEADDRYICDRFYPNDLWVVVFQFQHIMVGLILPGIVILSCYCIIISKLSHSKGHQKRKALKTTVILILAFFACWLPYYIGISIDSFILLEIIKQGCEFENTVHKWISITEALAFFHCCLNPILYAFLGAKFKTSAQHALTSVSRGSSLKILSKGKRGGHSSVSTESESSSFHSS
# procedure details: saturation radioligand binding, Jurkat and CMS5/CXCR4 cells
pKd: −log10 of the molar value. Square brackets hold non-standard residues; d marks the D form. * marks the point of attachment. 2Nal = N[C@@H](Cc1ccc2ccccc2c1)C(=O)O; 125I = [125I]*
assay metric: pKd

Record summary for cyclo([dY](125I)RR[2Nal]G) (also called radiolabeled CPCR4) [125I-CPCR4] : reported pKd = 9.40 to 9.52
